Reference source for all entries: ChEMBL document CHEMBL1156451

Test system: Bordetella bronchiseptica
assay_remarks: Antibacterial activity against Bordetella bronchiseptica CUN 11844-99 after 24 hrs in Mueller-Hinton broth medium
Format: functional
Where a SMILES comes first, the peptide text is derived from it.
measured_metric: MIC (µg/mL)
Note: unit µg/mL is implicit; provide only the numeric part.

Return reported MIC; argument: CC[C@H](C)[C@H](NC(=O)[C@H](CCCCN)NC(=O)[C@H](CCCCN)NC(=O)[C@H](CO)NC(=O)[C@@H](NC(=O)[C@@H](N)CCCCN)[C@@H](C)CC)C(=O)N[C@@H](CCSC)C(=O)N[C@@H](CCCNC(=N)N)C(=O)N[C@H](C(=O)N[C@@H](Cc1ccccc1)C(=O)N[C@@H](CC(C)C)C(=O)N[C@@H](CCCNC(=N)N)C(=O)N[C@@H](CCCNC(=N)N)C(N)=O)[C@@H](C)O (H-KISKKIMRTFLRR-NH2)
16

---

Parameter: MBC. Scope: all listed entries.
System: Staphylococcus aureus
assay_remarks: Antibacterial activity against methicillin-resistant Staphylococcus aureus ATCC 43300 after 24 hrs in Mueller-Hinton broth medium
Type: functional
applied_conditions: ATCC 43300, 24 h
Where a SMILES comes first, the peptide text is derived from it.

{"compound": "CC[C@H](C)[C@H](NC(=O)[C@H](CCCCN)NC(=O)[C@H](CCCCN)NC(=O)[C@H](CO)NC(=O)[C@@H](NC(=O)CNC(=O)[C@H](CCCNC(=N)N)NC(=O)[C@H](CC(C)C)NC(=O)[C@@H](NC(=O)[C@@H](N)CCCCN)[C@@H](C)CC)C(C)C)C(=O)N[C@@H](CCSC)C(=O)N[C@@H](CCCNC(=N)N)C(=O)N[C@@H](CCCNC(=N)N)C(=O)N[C@H](C(=O)N[C@@H](CC(C)C)C(=O)N[C@H](C(=O)NCC(=O)N[C@@H](CCCCN)C(=O)N[C@@H](CCCCN)C(N)=O)[C@@H](C)O)[C@@H](C)CC (H-KILRGVSKKIMRRILTGKK-NH2)", "measured_metric": "MBC", "test_value": "> 256 µg/mL"}

Any idea what MBC came out for CC[C@H](C)[C@H](NC(=O)[C@H](CCCNC(=N)N)NC(=O)[C@H](CCCCN)NC(=O)[C@H](CO)NC(=O)[C@@H](NC(=O)CNC(=O)[C@H](CCCNC(=N)N)NC(=O)[C@H](CC(C)C)NC(=O)[C@@H](NC(=O)[C@@H](N)CCCCN)[C@@H](C)CC)C(C)C)C(=O)N[C@@H](CC(C)C)C(=O)N[C@H](C(=O)NCC(=O)N[C@@H](CCCCN)C(=O)N[C@@H](CCCCN)C(N)=O)[C@@H](C)O (H-KILRGVSKRILTGKK-NH2) on Staphylococcus aureus?
> 256 µg/mL

---

System: HeLa
assay_remarks: Cytotoxicity against human HeLa cells at 100 ug/ml after 24 hrs by MTT assay relative to control
Type: functional
The source made the active and inactive calls. No cut-off for these calls is given here. Where a SMILES comes first, the peptide text is derived from it.
measured_metric: Activity

{"compound": "CC[C@H](C)[C@H](NC(=O)[C@H](CCCNC(=N)N)NC(=O)[C@H](CCCCN)NC(=O)[C@H](CO)NC(=O)[C@@H](NC(=O)[C@@H](N)CCCCN)[C@@H](C)CC)C(=O)N[C@@H](CC(C)C)C(=O)N[C@H](C(=O)NCC(=O)N[C@@H](CCCCN)C(=O)N[C@@H](CCCCN)C(=O)O)[C@@H](C)O (H-KISKRILTGKK-OH)", "measured_metric": "Activity", "test_value": "inactive"}
{"compound": "CC[C@H](C)[C@H](N)C(=O)N[C@@H](CO)C(=O)N[C@@H](CCCCN)C(=O)N[C@@H](CCCNC(=N)N)C(=O)N[C@H](C(=O)N[C@@H](CC(C)C)C(=O)N[C@H](C(=O)NCC(=O)N[C@@H](CCCCN)C(=O)N[C@@H](CCCCN)C(=O)O)[C@@H](C)O)[C@@H](C)CC (H-ISKRILTGKK-OH)", "measured_metric": "Activity", "test_value": "inactive"}
{"compound": "CC[C@H](C)[C@H](NC(=O)[C@H](CCCNC(=N)N)NC(=O)[C@H](CCCCN)NC(=O)[C@H](CO)NC(=O)[C@@H](NC(=O)CNC(=O)[C@H](CCCNC(=N)N)NC(=O)[C@H](CC(C)C)NC(=O)[C@@H](NC(=O)[C@@H](N)CCCCN)[C@@H](C)CC)C(C)C)C(=O)N[C@@H](CC(C)C)C(=O)N[C@H](C(=O)NCC(=O)N[C@@H](CCCCN)C(=O)N[C@@H](CCCCN)C(N)=O)[C@@H](C)O (H-KILRGVSKRILTGKK-NH2)", "measured_metric": "Activity", "test_value": "inactive"}
